Reported pIC50 by item:
molecular target: α-Glucosidase (Sigma, G5003) derived from baker's yeast (Saccharomyces cerevisiae, UniProt P53341)
Sequence (P53341 whole entry): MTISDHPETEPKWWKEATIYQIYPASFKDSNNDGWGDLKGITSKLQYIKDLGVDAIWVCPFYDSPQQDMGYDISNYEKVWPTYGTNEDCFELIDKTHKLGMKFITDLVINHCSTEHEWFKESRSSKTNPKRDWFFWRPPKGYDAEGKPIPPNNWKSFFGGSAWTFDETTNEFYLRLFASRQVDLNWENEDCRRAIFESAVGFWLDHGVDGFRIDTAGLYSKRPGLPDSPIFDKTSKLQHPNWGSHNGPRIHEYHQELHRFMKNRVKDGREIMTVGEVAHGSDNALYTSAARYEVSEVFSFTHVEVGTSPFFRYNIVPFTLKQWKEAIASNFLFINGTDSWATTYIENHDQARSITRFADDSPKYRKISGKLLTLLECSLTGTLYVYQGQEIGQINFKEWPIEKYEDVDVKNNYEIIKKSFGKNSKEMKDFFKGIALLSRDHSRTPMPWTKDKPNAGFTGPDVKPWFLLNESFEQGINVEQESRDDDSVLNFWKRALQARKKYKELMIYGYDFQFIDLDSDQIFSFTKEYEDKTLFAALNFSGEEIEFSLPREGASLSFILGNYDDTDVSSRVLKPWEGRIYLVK
# pIC50 is unitless: minus log10 of the molar concentration; print number only

# Smiles data, pIC50
rows = [
    ("COc1ccc(-c2c(C#N)c(SCc3nc4ccccc4[nH]3)nc(C)c2C(C)=O)cc1", 5.00),
    ("CSc1nc(N)nc(SCC(=O)c2ccc3c(c2)OCO3)c1C#N", 4.45),
    ("Cc1cccc(-c2cc3ncn(CC(=O)NC(=O)Nc4ccccc4)c(=O)c3s2)c1", 4.76),
]

IN: For the molecule O=C(Nc1ccccc1C(=O)NCc1ccco1)c1ccc(F)cc1 , give its reported pIC50.
OUT: 4.50

###

This document collects Ki values reported for α-glucosidase (Saccharomyces cerevisiae, UniProt P53341).
Quick note: give the figure in µM, leave out the unit.

# Smiles data, Measurement target, Ki (µM)
rows = [
    ("Cc1cccc(-c2cc3ncn(CC(=O)NC(=O)Nc4ccccc4)c(=O)c3s2)c1", "α-glucosidase (Saccharomyces cerevisiae, UniProt P53341)", 24.2),
]

IN: For the molecule O=C(Nc1ccccc1C(=O)NCc1ccco1)c1ccc(F)cc1 , give its reported Ki.
OUT: 11.3

IN: For the molecule CSc1nc(N)nc(SCC(=O)c2ccc3c(c2)OCO3)c1C#N , give its reported Ki.
OUT: 11.3

IN: For the molecule COc1ccc(-c2c(C#N)c(SCc3nc4ccccc4[nH]3)nc(C)c2C(C)=O)cc1 , give its reported Ki.
OUT: 15.4
